- TESTED_TARGET: NOPr (Homo sapiens, UniProt P41146)
- Sequence (P41146 whole entry): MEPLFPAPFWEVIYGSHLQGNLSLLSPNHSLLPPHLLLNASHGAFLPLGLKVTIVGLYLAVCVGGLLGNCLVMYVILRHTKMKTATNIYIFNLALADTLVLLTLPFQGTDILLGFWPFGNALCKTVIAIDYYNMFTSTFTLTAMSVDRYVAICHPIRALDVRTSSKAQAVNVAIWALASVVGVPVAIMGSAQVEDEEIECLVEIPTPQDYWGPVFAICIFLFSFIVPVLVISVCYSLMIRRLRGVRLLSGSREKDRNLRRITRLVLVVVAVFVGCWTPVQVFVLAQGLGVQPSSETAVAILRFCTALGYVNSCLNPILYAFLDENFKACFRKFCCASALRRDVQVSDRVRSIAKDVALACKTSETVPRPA
- ASSAY_SUMMARY: TR-FRET competition binding with tracers 13g and 13h, Lumi4-Tb SNAP-NOPr membranes
- ASSAY_SETUP: 13g K i ± SEM (nM), tracer 13g (20 nM; 5 nM elsewhere in the source), 140 mM Na+, 100 μM Gpp(NH)p, 2 h 37 °C
QUANTITY_KIND: Ki (nM)

O=C(NCCCN1CCC2(CC1)OCc1ccccc12)[C@H]1CCCN1Cc1ccccc1 : 0.06

---

- TESTED_TARGET: NOPr (Homo sapiens, UniProt P41146)
- ASSAY_SUMMARY: BRET G-protein activation (GPA) assay, Gαi2, agonist and antagonist mode, Flp-In-NOPr-CHO cells
- Type: cell-based
- ASSAY_SETUP: pIC50 ± SEM, antagonist mode, inhibition of EC80 concentration of N/OFQ, n = 4 in duplicate
pIC50: −log10 of the molar value.
Quick reference for pIC50 among some compounds
QUANTITY_KIND: pIC50

C[C@H](NC(=O)OC(C)(C)C)C(=O)N1CCC[C@@H]1C(=O)NCCCN1CCC2(CC1)OCc1ccccc12 [11a] : 4.90
O=C(NCCCN1CCC2(CC1)OCc1ccccc12)[C@H]1CCCN1Cc1ccccc1 : 8.60
CC(C)(C)OC(=O)NCCOc1cccc(CN2CCC[C@@H]2C(=O)NCCCN2CCC3(CC2)OCc2ccccc23)c1 [11g] : 7.70
CN1/C(=C/C=C/C=C/C2=[N+](CCCCCC(=O)NCCOc3cccc(CN4CCC[C@@H]4C(=O)NCCCN4CCC5(CC4)OCc4ccccc45)c3)c3ccc(S(=O)(=O)[O-])cc3C2(C)C)C(C)(C)c2cc(S(=O)(=O)[O-])ccc21.[K+] [13g] : 7.00
CC(C)(C)OC(=O)NCCC(=O)N1CCC[C@@H]1C(=O)NCCCN1CCC2(CC1)OCc1ccccc12 [11b] : 5.10
CC(C)(C)OC(=O)NCCOc1ccc(CN2CCC[C@@H]2C(=O)NCCCN2CCC3(CC2)OCc2ccccc23)cc1 [11h] : 8.30

---

- TESTED_TARGET: NOPr (Homo sapiens)
- ASSAY_SUMMARY: TR-FRET competition binding with tracers 13g and 13h, Lumi4-Tb SNAP-NOPr membranes
- ASSAY_SETUP: read-out: 13h K i ± SEM; tracer 13h (5 nM; 25 nM elsewhere in the source), 140 mM Na+, 100 μM Gpp(NH)p, 2 h 37 °C
pKi: −log10 of the molar value.
QUANTITY_KIND: pKi

CC(C)C1CCC(N2CCC3(CC2)C(=O)N(CCNS(N)(=O)=O)Cc2ccccc23)CC1 (stereo not shown) : 7.96

---

- TESTED_TARGET: NOPr (Homo sapiens)
- ASSAY_SUMMARY: BRET G-protein activation (GPA) assay, Gαi2, agonist and antagonist mode, Flp-In-NOPr-CHO cells
- Assay type: cell-based
- ASSAY_SETUP: antagonist mode, inhibition of EC80 concentration of N/OFQ, n = 4 in duplicate; read-out: IC50 (converted)
QUANTITY_KIND: IC50 (µM)

CC(C)(C)OC(=O)NCCCCC(=O)N1CCC[C@@H]1C(=O)NCCCN1CCC2(CC1)OCc1ccccc12 [11d] : 1.2
O=C(CCCCCNC(=O)COc1ccc(/C=C/C2=[N+]3C(=Cc4ccc(-c5cccs5)n4[B-]3(F)F)C=C2)cc1)NCCOc1ccc(CN2CCC[C@@H]2C(=O)NCCCN2CCC3(CC2)OCc2ccccc23)cc1 [14h] : 0.13
CC(C)(C)OC(=O)NCCOc1ccc(C(=O)N2CCC[C@@H]2C(=O)NCCCN2CCC3(CC2)OCc2ccccc23)cc1 [11f] : 0.27
CC(C)(C)OC(=O)NCCCC(=O)N1CCC[C@@H]1C(=O)NCCCN1CCC2(CC1)OCc1ccccc12 [11c] : 4.9
CC(C)(C)OC(=O)NCCOc1cccc(C(=O)N2CCC[C@@H]2C(=O)NCCCN2CCC3(CC2)OCc2ccccc23)c1 [11e] : 0.37

---

- TESTED_TARGET: NOPr (Homo sapiens)
- ASSAY_SUMMARY: BRET G-protein activation (GPA) assay, Gαi2, agonist and antagonist mode, Flp-In-NOPr-CHO cells
- Format: cell-based
- ASSAY_SETUP: supplementary csv; GPA assay antagonist mode; read-out: NOP pIC50 ± SEM (converted)
QUANTITY_KIND: IC50

CC(C)(C)OC(=O)NCCOc1ccc(C(=O)N2CCC[C@@H]2C(=O)NCCCN2CCC3(CC2)OCc2ccccc23)cc1 [11f] : 269 nM
CC(C)(C)OC(=O)NCCOc1cccc(C(=O)N2CCC[C@@H]2C(=O)NCCCN2CCC3(CC2)OCc2ccccc23)c1 [11e] : 372 nM
CC(C)(C)OC(=O)NCCCCC(=O)N1CCC[C@@H]1C(=O)NCCCN1CCC2(CC1)OCc1ccccc12 [11d] : 1230 nM
CC(C)(C)OC(=O)NCCCC(=O)N1CCC[C@@H]1C(=O)NCCCN1CCC2(CC1)OCc1ccccc12 [11c] : 4900 nM

---

- TESTED_TARGET: NOPr (Homo sapiens, UniProt P41146)
- ASSAY_SUMMARY: BRET G-protein activation (GPA) assay, Gαi2, agonist and antagonist mode, Flp-In-NOPr-CHO cells
- Format: cell-based
- ASSAY_SETUP: supplementary csv; GPA assay antagonist mode; read-out: NOP IC50 (converted)
Each record here notes measured IC50.
QUANTITY_KIND: IC50

CC(C)(C)OC(=O)NCCCCC(=O)N1CCC[C@@H]1C(=O)NCCCN1CCC2(CC1)OCc1ccccc12 [11d] : 1230 nM
O=C(CCCCCNC(=O)COc1ccc(/C=C/C2=[N+]3C(=Cc4ccc(-c5cccs5)n4[B-]3(F)F)C=C2)cc1)NCCOc1ccc(CN2CCC[C@@H]2C(=O)NCCCN2CCC3(CC2)OCc2ccccc23)cc1 [14h] : 126 nM
CC(C)(C)OC(=O)NCCOc1cccc(C(=O)N2CCC[C@@H]2C(=O)NCCCN2CCC3(CC2)OCc2ccccc23)c1 [11e] : 372 nM
CC(C)(C)OC(=O)NCCOc1ccc(C(=O)N2CCC[C@@H]2C(=O)NCCCN2CCC3(CC2)OCc2ccccc23)cc1 [11f] : 269 nM

---

- TESTED_TARGET: UniProtKB P41146
- ASSAY_SUMMARY: BRET G-protein activation (GPA) assay, Gαi2, agonist and antagonist mode, Flp-In-NOPr-CHO cells
- Type: cell-based
- ASSAY_SETUP: antagonist mode, inhibition of EC80 concentration of N/OFQ, n = 4 in duplicate; read-out: pIC50 ± SEM (converted)
QUANTITY_KIND: IC50 (nM)

O=C(CCCCCNC(=O)COc1ccc(/C=C/C2=[N+]3C(=Cc4ccc(-c5cccs5)n4[B-]3(F)F)C=C2)cc1)NCCOc1ccc(CN2CCC[C@@H]2C(=O)NCCCN2CCC3(CC2)OCc2ccccc23)cc1 [14h] : 126
CC(C)(C)OC(=O)NCCOc1ccc(C(=O)N2CCC[C@@H]2C(=O)NCCCN2CCC3(CC2)OCc2ccccc23)cc1 [11f] : 251
CC(C)(C)OC(=O)NCCCCC(=O)N1CCC[C@@H]1C(=O)NCCCN1CCC2(CC1)OCc1ccccc12 [11d] : 1260
CC(C)(C)OC(=O)NCCCC(=O)N1CCC[C@@H]1C(=O)NCCCN1CCC2(CC1)OCc1ccccc12 [11c] : 5010
CC(C)(C)OC(=O)NCCOc1cccc(C(=O)N2CCC[C@@H]2C(=O)NCCCN2CCC3(CC2)OCc2ccccc23)c1 [11e] : 398

---

# IC50 listing for each entry below
- TESTED_TARGET: NOPr (Homo sapiens)
- ASSAY_SUMMARY: BRET G-protein activation (GPA) assay, Gαi2, agonist and antagonist mode, Flp-In-NOPr-CHO cells
- Assay type: cell-based
- ASSAY_SETUP: IC50, antagonist mode, inhibition of EC80 concentration of N/OFQ, n = 4 in duplicate
QUANTITY_KIND: IC50 (nM)

C[C@H](NC(=O)OC(C)(C)C)C(=O)N1CCC[C@@H]1C(=O)NCCCN1CCC2(CC1)OCc1ccccc12 [11a] : 11700
CC(C)(C)OC(=O)NCCOc1cccc(CN2CCC[C@@H]2C(=O)NCCCN2CCC3(CC2)OCc2ccccc23)c1 [11g] : 20
CC(C)(C)OC(=O)NCCOc1ccc(CN2CCC[C@@H]2C(=O)NCCCN2CCC3(CC2)OCc2ccccc23)cc1 [11h] : 5.5
CC(C)(C)OC(=O)NCCC(=O)N1CCC[C@@H]1C(=O)NCCCN1CCC2(CC1)OCc1ccccc12 [11b] : 7800
O=C(NCCCN1CCC2(CC1)OCc1ccccc12)[C@H]1CCCN1Cc1ccccc1 : 2.7
CN1/C(=C/C=C/C=C/C2=[N+](CCCCCC(=O)NCCOc3cccc(CN4CCC[C@@H]4C(=O)NCCCN4CCC5(CC4)OCc4ccccc45)c3)c3ccc(S(=O)(=O)[O-])cc3C2(C)C)C(C)(C)c2cc(S(=O)(=O)[O-])ccc21.[K+] [13g] : 110

The measured values listed here are drawn from paper PMC12833874.
